# Test system: P. aeruginosa
# assayInfo: Minimal inhibitory concentration (MIC), modified CLSI broth microdilution in CAA or CAA/HuS
# Assay type: cell-based, Pseudomonas aeruginosa
# setupConditions: CAA supplemented with 25% human serum
quantityName: MIC value in CAA/HuS (µg/mL)

>>> recordednumber("GN54: Modified GN4, N-terminal peptide KRKKRKKRK with linker, SEQ ID NO: 8 (protein) KRKKRKKRKAGAGAGAGAGAGAGAGASMRTSQRGIDLIKSFEGLRLSAYQDSVGVWTIGYGTTRGVTRYMTITVEQAERMLSNDIQRFEPELDRLAKVPLNQNQWDALMSFVYNLGAANLASSTLLKLLNKGDYQGAADQFPRWVNAGGKRLDGLVKRRAAERALFLEPLS")
2
>>> recordednumber("GN4: Native lysin, YP_002284361.1/Lysozyme, SEQ ID NO: 3; first disclosed in WO/2017/049233 (protein, Pseudomonas phage PAJU2) MRTSQRGIDLIKSFEGLRLSAYQDSVGVWTIGYGTTRGVTRYMTITVEQAERMLSNDIQRFEPELDRLAKVPLNQNQWDALMSFVYNLGAANLASSTLLKLLNKGDYQGAADQFPRWVNAGGKRLDGLVKRRAAERALFLEPLS")
16
>>> recordednumber("GN94: Modified GN37, N-terminal peptide KFFKFFKFFK with linker, SEQ ID NO: 14 (protein) KFFKFFKFFKAGAGAGAGAGAGAGAGASMTYTLSKRSLDNLKGVHPDLVAVVHRAIQLTPVDFAVIEGLRSVSRQKELVAAGASKTMNSRHLTGHAVDLAAYVNGIRWDWPLYDAIAVAVKAAAKELGVAIVWGGDWTTFKDGPHFELDRSKYR")
2
